- run description: Antibiotic concentrations in porcine oral fluid after intramuscular application (UHPLC-MS/MS)
- Format: in vivo
- details: male, (Landrace × Yorkshire) × Duroc crossbred (DanBred sows), pig, intramuscular; oral fluid, pigs, i.m., time 9 d, posttreatment; read-out: Avarage Concentrations in oral fluid
measured property: concentration at 9 d (ng/mL)

Worked examples follow.
COc1ncnc(NS(=O)(=O)c2ccc(N)cc2)c1OC | 386
CC[C@H]1OC(=O)C[C@@H](O)[C@H](C)[C@@H](O[C@@H]2O[C@H](C)[C@@H](O[C@H]3C[C@@](C)(O)[C@@H](O)[C@H](C)O3)[C@H](N(C)C)[C@H]2O)[C@@H](CC=O)C[C@@H](C)C(=O)/C=C/C(C)=C/[C@@H]1CO[C@@H]1O[C@H](C)[C@@H](O)[C@@H](OC)[C@H]1OC | 158
C=C[C@]1(C)C[C@@H](OC(=O)CSCCN(CC)CC)[C@]2(C)[C@H](C)CC[C@]3(CCC(=O)[C@H]32)[C@@H](C)[C@@H]1O | 567

1. CCC[C@@H]1C[C@@H](C(=O)N[C@@H]([C@H]2O[C@H](SC)[C@H](O)[C@@H](O)[C@H]2O)[C@@H](C)O)N(C)C1
2. COc1cc(Cc2cnc(N)nc2N)cc(OC)c1OC
Between 1 and 2 , which one shows the larger concentration at 9 d value? Which one? Tell me its label.
1
(1: 457 ng/mL, 2: 128 ng/mL)

====

- run description: Antibiotic concentrations in porcine oral fluid after intramuscular application (UHPLC-MS/MS)
- Format: in vivo
- details: male, (Landrace × Yorkshire) × Duroc crossbred (DanBred sows), pig, intramuscular; oral fluid, pigs, i.m., time 14 d, posttreatment; read-out: Avarage Concentrations in oral fluid
measured property: concentration at 14 d (ng/mL)

CC[C@H]1OC(=O)C[C@@H](O)[C@H](C)[C@@H](O[C@@H]2O[C@H](C)[C@@H](O[C@H]3C[C@@](C)(O)[C@@H](O)[C@H](C)O3)[C@H](N(C)C)[C@H]2O)[C@@H](CC=O)C[C@@H](C)C(=O)/C=C/C(C)=C/[C@@H]1CO[C@@H]1O[C@H](C)[C@@H](O)[C@@H](OC)[C@H]1OC | 30.6

P. C=C[C@]1(C)C[C@@H](OC(=O)CSCCN(CC)CC)[C@]2(C)[C@H](C)CC[C@]3(CCC(=O)[C@H]32)[C@@H](C)[C@@H]1O
Q. COc1cc(Cc2cnc(N)nc2N)cc(OC)c1OC
R. COc1ncnc(NS(=O)(=O)c2ccc(N)cc2)c1OC
S. CCC[C@@H]1C[C@@H](C(=O)N[C@@H]([C@H]2O[C@H](SC)[C@H](O)[C@@H](O)[C@H]2O)[C@@H](C)O)N(C)C1
rank_up(items): orders items by reported concentration at 14 d in ascending numerical order. Reply with the item labels sorted in the order that was asked for.
Q, R, S, P

====

- run description: Antibiotic concentrations in porcine oral fluid after intramuscular application (UHPLC-MS/MS)
- Format: in vivo
- details: male, (Landrace × Yorkshire) × Duroc crossbred (DanBred sows), pig, intramuscular; oral fluid, pigs, i.m., time 21 d, posttreatment; read-out: Avarage Concentrations in oral fluid
measured property: concentration at 21 d (ng/mL)

Worked examples follow.
CC[C@H]1OC(=O)C[C@@H](O)[C@H](C)[C@@H](O[C@@H]2O[C@H](C)[C@@H](O[C@H]3C[C@@](C)(O)[C@@H](O)[C@H](C)O3)[C@H](N(C)C)[C@H]2O)[C@@H](CC=O)C[C@@H](C)C(=O)/C=C/C(C)=C/[C@@H]1CO[C@@H]1O[C@H](C)[C@@H](O)[C@@H](OC)[C@H]1OC [TYL, tylosin] | 9.2
C=C[C@]1(C)C[C@@H](OC(=O)CSCCN(CC)CC)[C@]2(C)[C@H](C)CC[C@]3(CCC(=O)[C@H]32)[C@@H](C)[C@@H]1O [TIAM, tiamulin] | 148
CCC[C@@H]1C[C@@H](C(=O)N[C@@H]([C@H]2O[C@H](SC)[C@H](O)[C@@H](O)[C@H]2O)[C@@H](C)O)N(C)C1 [LIN, lincomycin] | 252

A. COc1ncnc(NS(=O)(=O)c2ccc(N)cc2)c1OC [SDX, sulfadoxine]
B. COc1cc(Cc2cnc(N)nc2N)cc(OC)c1OC [TRMP, trimethoprim]
Between the entries labeled A and B , whose measured concentration at 21 d is lower? Which one? Tell me its label.
B
